For each record, write down the corresponding selectivity ratio.
- Test: Selectivity index, ratio of CC50 for human HepG2 cells to MIC90 for Mycobacterium tuberculosis H37Rv ATCC 27294
- Type: toxicity, cell-based
- Conditions Used: read-out: Selectivity Index

# map each compound to its selectivity ratio
1. CC(C)(C)OC(=O)N1CCN(Cc2ccc([N+](=O)[O-])o2)CC1
2. Cc1ccc(S(=O)(=O)N2CCN(Cc3ccc([N+](=O)[O-])o3)CC2)cc1
3. O=[N+]([O-])c1ccc(CN2CCN(c3ccc(N4CCOCC4)cc3)CC2)o1
4. CC(C)(C)c1ccc(N2CCN(Cc3ccc([N+](=O)[O-])o3)CC2)cc1
5. O=[N+]([O-])c1ccc(CN2CCN(c3ccc(Cl)cc3)CC2)o1

1. > 1600
2. > 338
3. > 2650
4. > 700
5. > 11600

====

- Test: Cytotoxicity against human HepG2 cells after 24 hrs by MTT assay
- Type: cell-based
Give measured CC50 at 24 h for each item. Keep answers brief.

// below: answered molecules
Need CC50 at 24 h of CC(C)(C)OC(=O)N1CCN(Cc2ccc([N+](=O)[O-])o2)CC1 , thanks.
> 64 µM

Item under review: O=[N+]([O-])c1ccc(CN2CCN(c3ccc(Cl)cc3)CC2)o1 . Reported CC50 at 24 h?
> 58 µM

Working through the 5 molecules below one at a time, give CC50 at 24 h for each.
1. Cc1ccc(S(=O)(=O)N2CCN(Cc3ccc([N+](=O)[O-])o3)CC2)cc1
2. O=[N+]([O-])c1ccc(S(=O)(=O)N2CCN(Cc3ccc([N+](=O)[O-])o3)CC2)cc1
3. CC(C)(C)c1ccc(N2CCN(Cc3ccc([N+](=O)[O-])o3)CC2)cc1
4. N#Cc1cccc(N2CCN(Cc3ccc([N+](=O)[O-])o3)CC2)c1
5. O=[N+]([O-])c1ccc(CN2CCN(S(=O)(=O)c3ccc(F)cc3)CC2)o1

["> 54 µM", "> 50 µM", "> 63 µM", "> 64 µM", "> 54 µM"]

Provide CC50 at 24 h values for the following items, in order.
1. O=[N+]([O-])c1ccc(CN2CCN(S(=O)(=O)c3ccccc3)CC2)o1
2. COc1cccc(N2CCN(Cc3ccc([N+](=O)[O-])o3)CC2)c1
3. O=[N+]([O-])c1ccc(CN2CCN(c3ccc(N4CCOCC4)cc3)CC2)o1

["> 56 µM", "> 63 µM", "> 53 µM"]

====

- Test: Solubility of compound in PBS buffer
- Type: physicochemical
Answer each item with its documented solubility.
Don't forget the unit after the number, please.

Reference set, count: 3
What value of solubility has been reported for the following compound? CC(C)(C)OC(=O)N1CCN(Cc2ccc([N+](=O)[O-])o2)CC1
2570 µM

Consider the compound O=[N+]([O-])c1ccc(CN2CCN(S(=O)(=O)c3ccc(F)cc3)CC2)o1 and give its measured solubility.
54.1 µM

Looking for the measured solubility of CC(C)(C)c1ccc(N2CCN(Cc3ccc([N+](=O)[O-])o3)CC2)cc1 , can you help?
58.2 µM

Further cases:
Dear colleague, I am looking for the recorded solubility of the following compound: N#Cc1cccc(N2CCN(Cc3ccc([N+](=O)[O-])o3)CC2)c1
256 µM
